- Tested System: human macrophage elastase (HME/hMMP-12) (Homo sapiens, UniProt P39900)
- Construct: 0.5 nM HME; purchased R&D Systems 917-MP
- Sequence (P39900 106-470): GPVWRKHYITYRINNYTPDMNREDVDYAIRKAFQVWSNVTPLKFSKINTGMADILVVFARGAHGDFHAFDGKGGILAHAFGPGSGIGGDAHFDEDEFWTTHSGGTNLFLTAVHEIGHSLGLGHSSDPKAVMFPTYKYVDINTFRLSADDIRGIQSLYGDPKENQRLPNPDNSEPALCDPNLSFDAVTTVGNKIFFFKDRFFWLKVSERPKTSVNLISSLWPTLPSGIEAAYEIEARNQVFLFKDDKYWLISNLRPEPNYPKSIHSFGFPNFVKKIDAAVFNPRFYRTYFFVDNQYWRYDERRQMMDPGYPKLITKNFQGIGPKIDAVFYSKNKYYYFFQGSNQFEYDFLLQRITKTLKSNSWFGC
- Protocol: In vitro HME inhibition test in the presence of serum albumin (BSA) in the reaction buffer
- Type: biochemical
- Condition Parameters: presence of serum albumin (BSA) 2% (w/w)
Parameter: pIC50
# pIC50 = -log10(concentration in molar units)

Lookup: Fill blank: measured pIC50 of the compound O=C(O)[C@@H]1[C@@H](Cn2nnc3ccccc3c2=O)CC[C@H]1C(=O)c1ccc(OCCC2CCOCC2)cc1 (single isomer, unassigned) is ____.
Found: 8.39

Lookup: Now consider O=C(O)[C@H]1[C@H](Cn2nnc3ccccc3c2=O)CC[C@@H]1C(=O)c1ccc(OCCC2CCOCC2)cc1 (stereo in doubt) and answer again.
Found: 7.43

Lookup: And what about the compound Cc1ccc2nnn(C[C@@H]3CC[C@H](C(=O)c4ccc(OCCC5CCOCC5)cc4)[C@H]3C(=O)O)c(=O)c2c1 (racemic) ?
Found: 7.49

Lookup: Consider next the compound O=C(O)[C@H]1[C@H](Cn2nnc3ccccc3c2=O)CC[C@@H]1C(=O)c1ccc(OCC2CCOCC2)cc1 (stereo in doubt) in the same way.
Found: 8.19

Lookup: Queued: O=C(O)[C@@H]1[C@@H](Cn2nnc3ccccc3c2=O)CC[C@H]1C(=O)c1ccc(OCC2CCOCC2)cc1 (stereo in doubt)
Found: 8.17

Lookup: Request: O=C(O)[C@@H]1[C@@H](Cn2nnc3ccc(C(F)(F)F)cc3c2=O)CC[C@H]1C(=O)c1ccc(OCCC2CCOCC2)cc1 (single isomer, unassigned)
Found: 7.41

Lookup: Query O=C(O)[C@@H]1[C@@H](Cn2nnc3ccc(C(F)(F)F)cc3c2=O)CC[C@H]1C(=O)c1ccc(SCC2CCOCC2)cc1 (single isomer, unassigned) next
Found: 7.80

Lookup: Another: Cc1ccc2nnn(C[C@H]3CC[C@@H](C(=O)c4ccc(OCCC5CCOCC5)cc4)[C@@H]3C(=O)O)c(=O)c2c1 (single isomer, unassigned)
Found: 7.91

* * *

Can you tell me solubility at 24 h for the items I'm about to list?
- Protocol: Determination of solubility in PBS buffer pH 6.5
- Condition Parameters: PBS buffer, pH 6.5, aqueous buffer, kinetic from dmso stock, Solubility, PBS buffer pH 6.5, 1% DMSO, room temperature
Response body: numeric value in µg/mL, unit text excluded.

Lookup: Look at this molecule and give its reported solubility at 24 h. O=C(O)[C@@H]1[C@@H](Cn2nnc3ccc(C(F)(F)F)cc3c2=O)CC[C@H]1C(=O)c1ccc(SCC2CCOCC2)cc1 (single isomer, unassigned) [Example 14]
Found: 80

Lookup: What do you get for Cc1ccc2nnn(C[C@H]3CC[C@@H](C(=O)c4ccc(OCCC5CCOCC5)cc4)[C@@H]3C(=O)O)c(=O)c2c1 (single isomer, unassigned) [Example 20] ?
Found: 425

Lookup: Please answer likewise for O=C(O)[C@H]1[C@H](Cn2nnc3ccc(C(F)(F)F)cc3c2=O)CC[C@@H]1C(=O)c1ccc(OCCC2CCOCC2)cc1 (stereo in doubt) [Example 10]
Found: 33.4

* * *

- Tested on: rat hepatocytes
- Protocol: Hepatocyte assay for determination of metabolic stability
- Condition Parameters: after incubation with rat hepatocytes
Parameter: Fmax (maximum possible bioavailability after oral administration, well-stirred) (%)
Express the result in % but write the number alone.

Lookup: Requested read-out Fmax (maximum possible bioavailability after oral administration, well-stirred), target or system rat hepatocytes, entry Cc1ccc2nnn(C[C@H]3CC[C@@H](C(=O)c4ccc(OCCC5CCOCC5)cc4)[C@@H]3C(=O)O)c(=O)c2c1 (racemic) [Example 20]
Found: 81.8

Lookup: Now the same for O=C(O)[C@@H]1[C@@H](Cn2nnc3ccccc3c2=O)CC[C@H]1C(=O)c1ccc(OCCC2CCOCC2)cc1 (racemic) [Example 5]
Found: 79.2

Lookup: Would you kindly repeat that for O=C(O)[C@@H]1[C@@H](Cn2nnc3ccccc3c2=O)CC[C@H]1C(=O)c1ccc(OCC2CCOCC2)cc1 (stereo in doubt) [Example 2] ?
Found: 89.5

* * *

- Tested System: human macrophage elastase (HME/hMMP-12) (Homo sapiens, UniProt P39900)
- Construct: 0.5 nM HME; purchased R&D Systems 917-MP
- Protocol: In vitro HME inhibition test (standard or high-sensitivity)
- Format: biochemical
- Condition Parameters: absence of serum albumin (BSA); read-out: HME IC50 (−BSA)
pIC50: −log10 of the molar value.
Rule: yes (1) for pIC50 not less than 10, no (0) for anything less.

Lookup: Does the compound O=C(O)[C@H]1[C@H](Cn2nnc3ccccc3c2=O)CC[C@@H]1C(=O)c1ccc(OCC2CCOCC2)cc1 (stereo in doubt) have recorded pIC50 that is 10 or more?
Found: yes (1)

Lookup: Continue with O=C(O)[C@@H]1[C@@H](Cn2nnc3ccc(C(F)(F)F)cc3c2=O)CC[C@H]1C(=O)c1ccc(SCC2CCOCC2)cc1 (single isomer, unassigned)
Found: yes (1)

Lookup: Item: O=C(O)[C@H]1[C@H](Cn2nnc3ccccc3c2=O)CC[C@@H]1C(=O)c1ccc(OCCC2CCOCC2)cc1 (stereo in doubt)
Found: no (0)

* * *

Here we list compounds with their recorded pIC50 when tested on MMP-3 (Homo sapiens, UniProt P08254).
Sequence (P08254 100-477): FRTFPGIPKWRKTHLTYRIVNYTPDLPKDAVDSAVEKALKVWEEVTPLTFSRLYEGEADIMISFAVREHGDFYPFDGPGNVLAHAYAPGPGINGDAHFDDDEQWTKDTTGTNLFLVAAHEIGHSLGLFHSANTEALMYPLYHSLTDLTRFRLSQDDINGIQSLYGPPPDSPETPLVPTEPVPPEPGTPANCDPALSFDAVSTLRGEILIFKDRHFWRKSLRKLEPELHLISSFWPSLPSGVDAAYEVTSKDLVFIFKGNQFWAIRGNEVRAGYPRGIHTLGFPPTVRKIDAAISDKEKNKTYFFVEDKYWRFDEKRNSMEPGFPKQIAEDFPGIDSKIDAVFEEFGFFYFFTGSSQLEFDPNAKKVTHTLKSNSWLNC
// pIC50: -log10(molar conc.)

Lookup: # query: pIC50 of entry O=C(O)[C@H]1[C@H](Cn2nnc3ccccc3c2=O)CC[C@@H]1C(=O)c1ccc(OCC2CCOCC2)cc1 (stereo in doubt) [Example 1]
Found: 5.96

Lookup: Okay, and O=C(O)[C@@H]1[C@@H](Cn2nnc3ccc(C(F)(F)F)cc3c2=O)CC[C@H]1C(=O)c1ccc(SCC2CCOCC2)cc1 (single isomer, unassigned) [Example 15] ?
Found: 7.02

Lookup: Same lookup for O=C(O)[C@@H]1[C@@H](Cn2nnc3ccccc3c2=O)CC[C@H]1C(=O)c1ccc(OCCC2CCOCC2)cc1 (single isomer, unassigned) [Example 5] , please.
Found: 6.44

Lookup: Another compound to check: O=C(O)[C@H]1[C@H](Cn2nnc3ccc(C(F)(F)F)cc3c2=O)CC[C@@H]1C(=O)c1ccc(OCCC2CCOCC2)cc1 (stereo in doubt) [Example 10]
Found: 6.92

* * *

Hi there, I'd appreciate the recorded Solubility for every entry that follows.
- Protocol: Determination of solubility in PBS buffer pH 6.5
- Condition Parameters: PBS buffer pH 6.5, 1% DMSO, room temperature, 24 h
Unit µg/mL implied. Number only.

Lookup: Entry under review: Cc1ccc2nnn(C[C@H]3CC[C@@H](C(=O)c4ccc(OCC5CCOCC5)cc4)[C@@H]3C(=O)O)c(=O)c2c1 (racemic) [Example 18] . Reported Solubility?
Found: 330

Lookup: # iterate: O=C(O)[C@@H]1[C@@H](Cn2nnc3ccccc3c2=O)CC[C@H]1C(=O)c1ccc(OCCC2CCOCC2)cc1 (stereo in doubt) [Example 6]
Found: 354.9

Lookup: Can you check O=C(O)[C@@H]1[C@@H](Cn2nnc3ccc(C(F)(F)F)cc3c2=O)CC[C@H]1C(=O)c1ccc(OCCC2CCOCC2)cc1 (stereo in doubt) [Example 12] next?
Found: 240

Lookup: Thanks! And O=C(O)[C@@H]1[C@@H](Cn2nnc3ccc(C(F)(F)F)cc3c2=O)CC[C@H]1C(=O)c1ccc(SCC2CCOCC2)cc1 (racemic) [Example 15] ?
Found: 100

* * *

- Tested System: UniProt P50281
pIC50: −log10 of the molar value.
Values of pIC50 greater than or equal to 6 map to met; values below map to not met.

Lookup: Please indicate if the recorded pIC50 for O=C(O)[C@@H]1[C@@H](Cn2nnc3ccc(C(F)(F)F)cc3c2=O)CC[C@H]1C(=O)c1ccc(SCC2CCOCC2)cc1 (single isomer, unassigned) [Example 15] meets or exceeds 6.
Found: met

Lookup: Input O=C(O)[C@H]1[C@H](Cn2nnc3ccccc3c2=O)CC[C@@H]1C(=O)c1ccc(OCC2CCOCC2)cc1 (stereo in doubt) [Example 1]
Found: met

Lookup: Another compound to look at: Cc1ccc2nnn(C[C@@H]3CC[C@H](C(=O)c4ccc(OCCC5CCOCC5)cc4)[C@H]3C(=O)O)c(=O)c2c1 (racemic) [Example 19]
Found: not met

Lookup: Would you mind doing O=C(O)[C@H]1[C@H](Cn2nnc3ccc(C(F)(F)F)cc3c2=O)CC[C@@H]1C(=O)c1ccc(OCC2CCOCC2)cc1 (racemic) [Example 7] as well?
Found: met

* * *

- Tested System: MMP-16 (Homo sapiens)
- Sequence (P51512 120-607): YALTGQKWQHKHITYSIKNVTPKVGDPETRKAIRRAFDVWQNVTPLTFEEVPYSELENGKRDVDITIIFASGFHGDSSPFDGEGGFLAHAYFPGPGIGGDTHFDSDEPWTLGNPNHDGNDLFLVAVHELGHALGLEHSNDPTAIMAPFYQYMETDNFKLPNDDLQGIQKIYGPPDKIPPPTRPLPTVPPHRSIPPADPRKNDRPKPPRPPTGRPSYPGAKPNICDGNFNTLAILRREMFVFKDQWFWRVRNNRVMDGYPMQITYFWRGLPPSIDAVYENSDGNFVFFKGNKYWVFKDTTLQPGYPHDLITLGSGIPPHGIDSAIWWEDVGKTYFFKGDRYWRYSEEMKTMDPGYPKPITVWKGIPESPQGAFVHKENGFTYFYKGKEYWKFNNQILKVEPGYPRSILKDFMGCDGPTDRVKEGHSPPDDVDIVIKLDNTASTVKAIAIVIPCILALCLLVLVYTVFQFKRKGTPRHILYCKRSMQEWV
Parameter: IC50 (nM)
The answer is to be given in nM; state only the numeric part.

Lookup: State the recorded IC50 for this entry: O=C(O)[C@@H]1[C@@H](Cn2nnc3ccccc3c2=O)CC[C@H]1C(=O)c1ccc(OCCC2CCOCC2)cc1 (single isomer, unassigned)
Found: 940

Lookup: // repeat for O=C(O)[C@@H]1[C@@H](Cn2nnc3ccc(C(F)(F)F)cc3c2=O)CC[C@H]1C(=O)c1ccc(OCCC2CCOCC2)cc1 (single isomer, unassigned) and report
Found: 3800

Lookup: Same thing, different compound: O=C(O)[C@@H]1[C@@H](Cn2nnc3ccccc3c2=O)CC[C@H]1C(=O)c1ccc(OCC2CCOCC2)cc1 (stereo in doubt)
Found: 550
